The values you see were collected from PubChem BioAssay.

test: compounds binding Alexa647 anti-His antibody – biochemical, small-molecule microarray, 635 nm fluorescence, artefact control for SMM control protein annotation, primary screen (AID 1128); conditions: higher = more signal;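 further: score merges feature fluorescence with signal-to-noise for each printed compound spot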
experimental_endpoint: composite z-score
The answer should be a number; do not append a unit.

See these solved cases before continuing.
>>> quantitative_readout("O=C(O)C1N=C(c2ccc(OCCCO)cc2)N(c2ccccc2)O1 (stereo not drawn)")
1.73
>>> quantitative_readout("O=C1OCC=C[C@H]2OC34C=CCN(CCN5CCOCC5)C(=O)[C@H]3N(CCO)C(=O)[C@@H]4[C@@H]12 (stereo partly drawn)")
0.15
>>> quantitative_readout("COc1ccc(C(=O)Nc2ccc(CN3C(=O)[C@]4(O[C@H](CC(=O)N5CCC[C@H]5CO)[C@@H]([Si](C)(C)c5ccc(OC)cc5)[C@@H]4C)c4ccccc43)cc2)cc1")
1.91
>>> quantitative_readout("COC(=O)[C@@]1(Cc2ccc(OC)cc2)[C@H]2c3cc(C(=O)N4CCCC4)n(Cc4nc5ccccc5[nH]4)c3C[C@H]2CN1C(=O)c1ccccc1")
2.01
>>> quantitative_readout("CN1CCC(CCCO)=CC1c1cccs1 (stereo not drawn)")
-0.321

Challenge: Using the record for CC(C)CCC[C@@H](C)[C@H]1CC[C@@]2(C)C3=C(CC[C@]12C)[C@@]1(C)CC[C@H](OC(=O)c2ccc(C(F)(F)F)nc2)C(C)(C)C1CC3 (stereo partly drawn) , report its composite z-score.
Response given: 0.38

Challenge: Using the record for CCCCCN1CC=CC23O[C@@H]4C=CCOC(=O)[C@@H]4[C@H]2C(=O)N(C(C)CO)[C@@H]3C1=O (stereo partly drawn) , report its composite z-score.
Response given: -0.396

Challenge: Using the record for NCCCCCCNC(=O)[C@H]1C[C@H]2C(=O)N[C@@H](Cc3ccccc3)C(=O)N2[C@H]1c1cccc(OCCO)c1 , report its composite z-score.
Response given: 0.786

----------
Catalogue of compounds with associated z-score
assay: changes in parasitized red cell lysis, either direction – P. falciparum Indochina, OD700, 3 h, PSAC antagonist project, primary screen (AID 1156); details: P. falciparum-infected erythrocytes, osmotic lysis, higher = more signal, called active from +8 up or from −8 down
The answer should be a number; do not append a unit.

See these solved cases before continuing.
>>> quantitative_readout("[N-]=[N+]=NCc1ccccc1[C@@H]1OC(c2ccc(OCCCO)cc2)=N[C@]1(CCS(=O)(=O)c1ccccc1)C(=O)N1CCOCC1")
3.79
>>> quantitative_readout("O=C1C[C@@](C(=O)NCc2ccccc2)(c2ccc([N+](=O)[O-])cc2)[C@@H](c2ccc(CO)cc2)N1CC12CC3CC(CC(C3)C1)C2")
3.76

Kindly consider the entry below.
Challenge: Using the record for COCCOC(=O)N1C(=O)[C@@]2(c3ccccc31)[C@H](C(N)=O)[C@H]1C(=O)O[C@H](c3ccccc3)[C@H](c3ccccc3)N1[C@@H]2c1ccc(O)cc1 , report its z-score.
Response given: -0.142

----------
experiment: blockers of DNA damage checkpoint Chk1 activation – imaging, HeLa, hydroxyurea, phospho-Chk1 nuclear intensity, primary screen (AID 1187); conditions: hydroxyurea-induced phospho-Chk1 immunofluorescence imaging, higher = more signal; further: test concentration not given here
Decide by z-score: equal to or exceeding -0.07 means Met, less means Not met.

>>> cat("COC(=O)[C@]1(CCC(=O)OC(C)(C)C)N=C(c2ccc(OCCCO)cc2)O[C@@H]1c1ccccc1")
"Not met"
>>> cat("COc1ccc([Si](C)(C)[C@H]2[C@H](CC(=O)N3CCC[C@H]3CO)O[C@@]3(C(=O)N(Cc4cccc(N5CCOC5=O)c4)c4ccccc43)[C@@H]2C)cc1")
"Met"
>>> cat("COc1ccc([Si](C)(C)[C@@H]2[C@@H](CC(=O)N3Cc4ccccc4C[C@H]3CO)O[C@]3(C(=O)N(Cc4cccc(N5CCC5=O)c4)c4ccccc43)[C@H]2C)cc1")
"Met"
>>> cat("COc1cc2c(cc1O)C(c1cccs1)N(Cc1ccc([N+](=O)[O-])o1)CC2 (centres undefined)")
"Not met"
>>> cat("CCOC(=O)C[C@H]1[C@H](OC(=O)c2ccc(C(=O)c3ccccc3)cc2)[C@@H](NC(=O)Cc2ccc(OC)cc2)c2cc(OCCCO)ccc2N1C(=O)c1ccc2ccccc2n1")
"Not met"
>>> cat("COCCCNC(=O)[C@@]1(Cc2ccccc2)N=C(c2ccc(OCCCO)cc2)O[C@H]1c1ccccc1CN=[N+]=[N-]")
"Not met"

As a next step, examine the compound that follows.
Challenge: In plain terms: is recorded z-score at least -0.07 for C[N+](C)(C)CCCC[C@@H]1NC(=O)[C@@H]2C[C@H](C(=O)NCCCCCN)[C@H](c3ccc(O)cc3)N2C1=O ?
Response given: Not met

----------
assay: hepatitis C replication reporter changes, two-sided – Huh7 cells, luciferase reporter, HCV replication inhibitor project, primary screen (AID 1109); settings: Huh7 HCV replicon luciferase reporter, 48 h; higher = more signal;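 further: huh7 hepatoma cells harbouring a luciferase neomycin HCV replicon reporter; luciferase luminescence as measure of HCV replicon replication; test concentration not given here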
Decide by z-score: equal to or exceeding -0.8 means Met, less means Not met.

>>> cat("CCCC1(C(=O)OC)C=C2C(=C(c3ccccc3)C(=O)C2C)CN1 (stereo not given)")
"Not met"
>>> cat("COC(=O)c1c2oc(c1C(=O)OC)C(=O)N[C@@H](C(C)C)Cn1cc(nn1)C1(CCCCC1)NC(=O)N[C@H](CO)CC2")
"Met"

Challenge: In plain terms: is recorded z-score at least -0.8 for CC=CC(O)C1C=CC2C(=O)N(C)C(=O)C2N1N(c1ccccc1)c1ccccc1 (stereo not given) ?
Response given: Met

Challenge: In plain terms: is recorded z-score at least -0.8 for CC(=CC1CCCCC1)[C@@H](NC(=O)c1cccnc1)c1ccc(-c2ccccc2)cc1 ?
Response given: Not met

Challenge: In plain terms: is recorded z-score at least -0.8 for O=C1O[C@H](c2ccccc2)[C@H](c2ccccc2)N2[C@H]1[C@@H](C(=O)NC[C@H](O)c1ccccc1)[C@]1(C(=O)Nc3ccc(C#CC4=CCCCC4)cc31)[C@H]2c1ccccc1OCCO ?
Response given: Not met

Challenge: In plain terms: is recorded z-score at least -0.8 for CCCC(=O)N(CCc1c[nH]c2ccccc12)[C@@H]1CC(C(=O)NCCO)=C[C@H](Oc2c(I)cc(CO)cc2OC)[C@H]1O ?
Response given: Met

----------
target: Luciferin 4-monooxygenase (Photinus pyralis) (UniProt P08659); experiment: inhibition of purified Photinus pyralis luciferase – biochemical, luminescence, purified enzyme, 2006 set, primary screen (AID 1141); settings: purified firefly luciferase, SteadyGlo luminescence, 30 min; higher = more signal, called active from +8 up or from −8 down;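 further: cell-free assay with purified firefly luciferase at 100 ng per well in PBS; test concentration not given here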
Sequence (P08659 whole entry, looked up): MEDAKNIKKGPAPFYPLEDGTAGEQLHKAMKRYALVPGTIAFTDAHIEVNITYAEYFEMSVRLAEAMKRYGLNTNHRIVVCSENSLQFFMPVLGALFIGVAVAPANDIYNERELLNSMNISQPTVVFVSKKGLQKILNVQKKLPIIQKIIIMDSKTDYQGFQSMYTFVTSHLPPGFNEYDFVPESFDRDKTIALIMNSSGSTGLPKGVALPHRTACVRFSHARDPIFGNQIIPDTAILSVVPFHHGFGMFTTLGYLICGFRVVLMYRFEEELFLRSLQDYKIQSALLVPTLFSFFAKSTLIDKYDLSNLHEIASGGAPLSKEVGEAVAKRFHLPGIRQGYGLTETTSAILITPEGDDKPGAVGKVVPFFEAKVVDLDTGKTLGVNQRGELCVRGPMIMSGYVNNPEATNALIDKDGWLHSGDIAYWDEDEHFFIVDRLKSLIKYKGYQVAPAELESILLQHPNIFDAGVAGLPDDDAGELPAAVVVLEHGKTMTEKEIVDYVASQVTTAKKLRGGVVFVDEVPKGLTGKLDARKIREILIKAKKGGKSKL
Note to self: class labels come from recorded z-score, ranges listed here: range 1 (below -0.8), range 2 (-0.8 to below 0.05), range 3 (0.05 or more)

Take a look at these entries with their results.
>>> cat("NCCCCCNC(=O)[C@H]1C[C@H]2C(=O)N3CCC[C@H]3C(=O)N2[C@H]1c1ccc(O)cc1")
"range 2"
>>> cat("Cc1ccc(/C=C/C=O)cc1")
"range 1"
>>> cat("O=C1NC(=O)C2C1C=CC(C(O)c1ccc(I)cc1)N2Nc1ccccn1 (centres undefined)")
"range 2"
>>> cat("CC(C)=CCCC(C)=CC(O)C1C=CC2C(=O)N(c3ccccc3)C(=O)C2N1Nc1ccc(C(C)C)cc1 (centres undefined)")
"range 3"
>>> cat("CCN(CC)c1ccc(N2CC=CC34O[C@@H]5C=CCOC(=O)[C@@H]5[C@H]3C(=O)N(CCCCCCO)[C@@H]4C2=O)cc1 (some centres undefined)")
"range 1"
>>> cat("CC(C)NC(=O)[C@@]1(Cc2ccccc2I)c2ccccc2C(=O)N(Cc2ccccc2Cl)[C@H]1c1ccc(CO)cc1")
"range 2"
>>> cat("O=C(NC1CC1)[C@@H]1c2ccccc2C(=O)N(C2Cc3ccccc3C2)[C@H]1c1ccc(CO)cc1")
"range 3"
>>> cat("CC(C)C(=C=CC[C@H](O)c1ccc(CO)o1)CCO")
"range 2"

Challenge: Each molecule maps to one class by z-score. Which class for C[N+](C)(C)CCCCCCNC(=O)[C@H]1C[C@H]2C(=O)N[C@@H](Cc3ccccc3)C(=O)N2[C@H]1c1cccc(OCCO)c1 ?
Response given: range 3

----------
molecular target: Calmodulin-1 (Homo sapiens); experiment: small molecules binding calmodulin-1 with EGTA – biochemical, small-molecule microarray, Cy5-labelled CALM1, profiling panel (AID 1111); details: Cy5-CALM1 binding fluorescence, higher = more signal;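 further: labelled calmodulin applied in Tris saline Tween buffer holding calcium plus EGTA and DTT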
experimental_endpoint: composite z-score
The answer should be a number; do not append a unit.

See these solved cases before continuing.
>>> quantitative_readout("COC(=O)C(CC#Cc1ccc2c(c1)[C@]1(C(=O)N2)[C@H](c2ccccc2OCCO)N2[C@H](c3ccccc3)[C@H](c3ccccc3)OC(=O)[C@H]2[C@@H]1C(N)=O)C(=O)OC")
1.33
>>> quantitative_readout("O=C1C2C=CC(C(O)C=Cc3ccc([N+](=O)[O-])cc3)N(Nc3ccccc3F)C2C(=O)N1c1ccccc1 (configuration not stated)")
1.27
>>> quantitative_readout("C=C(/C(=C/C[C@H](OC(C)=O)c1ccc(OCCO)cc1)c1cc(C(=O)OC)ccc1OC)C(C)C")
1.17
>>> quantitative_readout("COC(=O)[C@@]1(Cc2ccc(F)cc2)[C@H]2c3cc(C(=O)N(C)C)n(Cc4ccc(C)o4)c3C[C@H]2CN1C(=O)c1ccccc1")
1.81
>>> quantitative_readout("COC(=O)[C@@]1(Cc2ccccc2)[C@H]2c3cc(C(=O)N(C)C)n(CCc4c[nH]c5ccc(O)cc45)c3C[C@H]2CN1C(=O)c1ccccc1")
1.2

Challenge: Using the record for CN(C)CCCCCCNC(=O)[C@@H]1C[C@@H]2C(=O)N3CCC[C@H]3C(=O)N2[C@@H]1c1ccc(O)cc1 , report its composite z-score.
Response given: -1.95

Challenge: Using the record for O=C1OCCC/C=C\[C@H]2OC34C=CCN(c5ccc6ccccc6c5)C(=O)[C@H]3N(CCCCCO)C(=O)[C@@H]4C12 (some centres not stated) , report its composite z-score.
Response given: -0.381

Challenge: Using the record for COCCCNC(=O)[C@@H]1c2ccccc2C(=O)N(Cc2ccccc2)[C@H]1c1ccc(CO)cc1 , report its composite z-score.
Response given: -0.448

Challenge: Using the record for C=CC[C@]1(C(N)=O)N=C(c2ccc(OCCCO)cc2)O[C@H]1c1ccccc1 , report its composite z-score.
Response given: 0.27

Challenge: Using the record for C#CCN(C/C=C/c1ccccc1)[C@H](CO)c1ccccc1 , report its composite z-score.
Response given: -0.653

Challenge: Using the record for COc1ccc([Si](C)(C)[C@@H]2[C@@H](CCO)O[C@]3(C(=O)N(Cc4cccc(N5CCOC5=O)c4)c4ccccc43)[C@H]2C)cc1 , report its composite z-score.
Response given: 1.37

Challenge: Using the record for COC(=O)c1c2oc(c1C(=O)OC)C(=O)NC1(CCCCC1)c1cn(nn1)C[C@H](Cc1ccccc1)NC(=O)N[C@H](CO)CC2 , report its composite z-score.
Response given: 0.0166
